System: NCI-H522
Assay: NCI tumour cell line growth inhibition, 48 h
The source made the active and inactive calls. Rule as the data show it: active = GI50 up to about 1.1 µM and inactive = higher.
For each of the compounds below, state its GI50.

# input compound: CCOC(=O)C1=C(C)N(Cc2ccccc2)C2(O)C(OC)CC(=O)C3C(=O)N(c4ccccc4)C(=O)C132 (configuration not stated) ; wanted: its GI50
5.98 µM (inactive)

Which value of GI50 has been reported for N#CC(C#N)/N=N/c1ccc(-c2nc3ccccc3[nH]2)cc1 in the records?
2.81 µM (inactive)

Can you look up the measured GI50 of O=C(/C=C/c1ccccc1)N1CCCCC1 for me?
> 100 µM (inactive)

Data request, read-out GI50, for CCOc1c2c(cc3c1C(=O)c1c(OC)cccc1C3=O)C=C(OC)CC2
10.4 µM (inactive)

Returns the measured GI50 for the input compound. Input: CC(=O)OC1(C(C)=O)CC2(c3ccccc3)OC1(c1ccccc1)c1ccccc12 (configuration not stated)
4.26 µM (inactive)

# input compound: COc1ccc2[nH]c3cc4c(=O)c5cc(OC)ccc5[nH]c4cc3c(=O)c2c1 ; wanted: its GI50
> 100 µM (inactive)

Need GI50 of O=C(O)C(O)(c1ccc(-c2ccccc2)cc1)c1ccc(-c2ccccc2)cc1 , thanks.
18.9 µM (inactive)

Fill blank: measured GI50 of the compound CCCCc1ccc(Nc2nc(Cl)c3c(ncn3C3CC(Oc4ccc(C)cc4)C(COc4ccc(C)cc4)O3)n2)cc1 (configuration not stated) is ____.
> 100 µM (inactive)

Which GI50 value belongs to CC12N=NN(c3ccc([N+](=O)[O-])cc3)C1(O)c1ccccc1C2=O (configuration not stated) ?
> 100 µM (inactive)

What does the record list as GI50 for OC1c2ccccc2[C@@H]2[C@H]1[C@@H](c1ccccc1)C1(Cc3ccccc3C1O)[C@H]2c1ccccc1 (some centres not stated) ?
3.03 µM (inactive)

# lookup: GI50 of O=C1c2ccccc2CC12Cc1ccc3c(c1C2)CCC3 (configuration not stated)
4.54 µM (inactive)

Sample Nc1nc(Nc2ccccc2)c2[nH]cnc2n1 — what was its GI50?
65.5 µM (inactive)

Fill blank: measured GI50 of the compound CCc1n[nH]c(=O)n1/N=C/c1ccc(/C=N/n2c(CC)n[nH]c2=O)cc1 is ____.
> 100 µM (inactive)

What value of GI50 has been recorded for this entry: O=C(O)/C(Cc1ccnc2ccccc12)=N\O
> 100 µM (inactive)

Quick one: GI50 of Nc1ncnc2oc(C3OC(COC(=O)c4ccccc4)C(OC(=O)c4ccccc4)C3OC(=O)c3ccccc3)nc12 (configuration not stated) ?
> 100 µM (inactive)

If you can, please state the reported GI50 value of Nc1ccc(Oc2ccc(C34CC5CC6C3CC3CC4C(C5)C6(c4ccc(Oc5ccc(N)cc5)cc4)C3)cc2)cc1 .
12.8 µM (inactive)

Entry O=C(O)C1CC2(C1)CC(C(=O)O)C2 (configuration not stated) : reported GI50 = ?
> 100 µM (inactive)

Request the reported GI50 associated with CC(C)c1cccc(C(C)C)c1/N=C(/N)C#N
38 µM (inactive)

Fill in the blank: the reported GI50 of c1cnc2c(c1)-n1cccc1C1(CCCCC1)NN2 is ____.
63.1 µM (inactive)

Any idea what GI50 was measured for Cc1ccc(-c2cc(-c3ccco3)c(C#N)c(O)n2)cc1 ?
> 100 µM (inactive)

Requested read-out: GI50. Entry: CC(=O)OCC1OC(Nn2c(=O)[nH]c3ccccc3c2=O)C(OC(C)=O)C(OC(C)=O)C1OC(C)=O (configuration not stated)
> 100 µM (inactive)

Item under review: COC1(C)CCC(OS(C)(=O)=O)CO1 (configuration not stated) . Reported GI50?
> 100 µM (inactive)

###

System: UACC-257
Assay: NCI tumour cell line growth inhibition, 48 h
The source made the active and inactive calls. Cut-off read from the data, not from the text of the source: active = GI50 up to about 1.1 µM and inactive = higher.
VALUE KIND: GI50

Look up GI50: COc1ccc(N(C)Sc2ccccc2)cc1
37 µM (inactive)

Requested field: GI50. Item: CN(C)/C=N\c1nncc2[nH]nnc12
> 100 µM (inactive)

What does the record list as GI50 for O=C1/C(=C/c2ccc3c(c2)OCO3)SC2C=Nc3ccccc3N12 (stereo unspecified) ?
> 100 µM (inactive)

Give its GI50 value. Item: CC#CS(=O)(=O)c1ccccc1
2.88 µM (inactive)

So what does the record say about GI50 for CCOC(=O)C1=C(C)N(Cc2ccccc2)C2(O)C(OC)CC(=O)C3C(=O)N(c4ccccc4)C(=O)C132 (stereo unspecified) ?
15.5 µM (inactive)

For CCn1c(CSc2nc(-c3ccccc3)c(-c3ccccc3)[nH]2)n[nH]c1=S , what is its reported GI50?
> 100 µM (inactive)

###

Tested on: OVCAR-3
Assay: NCI tumour cell line growth inhibition, 48 h
The source made the active and inactive calls. Cut-off read from the data, not from the text of the source: active = GI50 up to about 1.1 µM and inactive = higher.
Write down the outcome that applies. Available outcomes: true for active, false for inactive

Record request — test call for Cc1cc(C)nc(NS(=O)(=O)c2ccc(Nc3c4ccccc4nc4c(C(=O)N5CCN(CCOS(C)(=O)=O)CC5)cccc34)cc2)n1
false

Assay outcome for C[C@@H]1[C@@H]2[C@@H](C=C3C4CCC5Cc6nc7c(nc6C[C@@]5(C)C4C[C@H](O)[C@]32CO)CC2CCC3C4=C[C@H]5O[C@@]6(OC(C)(CO)C[C@@H]6O)[C@H](C)[C@@]5(O)[C@]4(C)[C@@H](O)CC3[C@]2(C)C7)O[C@]12CCC(C)(C)O2 (stereo not given in full) : what was it?
true

Assay outcome for O=c1oc(=O)c2oc3ccccc3oc1=2 : what was it?
false

Recorded test call requested for Cc1c(C#N)c(N)n(C2OC(CO)C(O)C(O)C2O)c(=S)c1C#N (stereo not given)
false

Short answer needed: outcome of this test for O=c1oc2ccc(Cl)cc2cc1-c1cn2ccsc2n1 ?
false

State the result this test recorded for O=C(CCN1CCC(CCO)CC1)Nc1ccc2c(c1)C(=O)c1ccc(NC(=O)CCN3CCC(CCO)CC3)cc1C2=O .
false

Name the outcome recorded for CCc1cccc(C(C)(C)C)c1NC(=S)N/C=C(/C#N)C(N)=O in the assay.
false

Per the assay record, what outcome was assigned to OCc1ccc2c(c1)CC1(C2)Cc2cc3c(cc2C1)CCC3 ?
false

Could you please tell me the result logged for COc1ccc(NCc2cc(OC)c(OC)c(OC)c2)cc1 in this assay?
true

Short answer needed: outcome of this test for C#Cc1cccc(N2C(=O)CC(=P(c3ccccc3)(c3ccccc3)c3ccccc3)C2=O)c1 ?
false

Query: recorded result category for CN(C)CCNC(=O)c1cc(Cl)cc2ccc(-c3ccccc3)nc12 in this test
false

Outcome? CCOC(=O)c1c(SC(=O)c2ccc(OC)cc2)n(-c2ccccc2)c(=S)n(-c2ccccc2)c1=O
false

GET /call?item= CCCCCCCCCCCCCCCCCCNC(=O)C(N)Cc1ccc(OCc2ccccc2)cn1 (stereo not given) returns the recorded outcome of this test.
false

What classification did CCOC(=O)CCc1c(C(=O)OCC)[nH]c(/C=C2\NC(=O)C(C)=C2CC)c1C end up with in this test?
false

For this compound, state the assay outcome: CCc1nc(N)nc(N)c1-c1ccc([N+](=O)[O-])c(NCc2ccccc2)c1
false

Record request — test call for O=C(O/N=C1/CCC/C1=C\c1ccccc1)c1ccc(Cl)c(Cl)c1
false

Assay outcome for OC1c2ccccc2[C@@H]2[C@H]1[C@@H](c1ccccc1)C1(Cc3ccccc3C1O)[C@H]2c1ccccc1 (stereo not given in full) : what was it?
false

Just curious, what result did COCc1cc2c(cc1/C=C/[N+](=O)[O-])OCO2 get here?
false

Test call for this compound, please: CCCCn1c2c(n(CCCC)c1=S)-c1c(n(CCCC)c(=S)n1CCCC)S[Se][Se]S2
true

So what was the verdict on CC(C)(C)[Si](C)(C)OCC1OC(n2cnc3c(N)ncnc32)CC1OS(C)(=O)=O (stereo not given) in this test?
false

Check the results log: what was the call for OC1(c2ccccc2)CC2CCC(C1)N2CCc1ccccc1 (stereo not given) ?
false

Hi, sorry to bother you, what did the test record for Sc1nnc(NNc2ccccc2)n1Nc1ccccc1 ?
false

Called result for Cc1cc(Cl)ccc1NC(=O)CC/C(CC(=O)C(C)C)=N\NC(=O)C[n+]1ccccc1
false

Each compound tested received a call. Report the one for O=NN(CCCl)C(=O)NC1CCCCC1 .
false

Please share the test call associated with COC(=O)c1cc(NC2OCC(OC(C)=O)C(OC(C)=O)C2OC(C)=O)nc(SC)c1C(=O)OC (stereo not given) .
false

For O=C(O)C1CC2(C1)CC(C(=O)O)C2 (stereo not given) , what call appears in the results of this test?
false

Kindly provide the recorded test outcome for the following compound: COc1cc(C2SCC(=O)N2c2ccc(-c3ccc(-n4c(-c5ccccc5)nc5ccccc5c4=O)cc3)cc2)cc(OC)c1OC (stereo not given)
false

Test call for this compound, please: CSc1ccn(C2CC(F)C(CO)O2)c(=O)n1 (stereo not given)
false

Hello, I am checking results. What call was entered for COc1ccc(/C=C/c2nsc(/C=C/c3ccc(OC)cc3)n2)cc1 ?
false

Please indicate how the test categorized O=c1oc2ccccc2c(O)c1C(C/C(CCN1CCCC1)=N\Nc1ccccc1)c1ccccc1 (stereo not given) .
false
